# Tested on: NCI-H322M lung
# assay-remarks: NCI-60 one-dose screen, 48 h
# applied-conditions: 10 µM unless noted
The panel holds about 83,000 compounds, 20% with a hit somewhere; the sample as a whole holds those more often. Active and inactive are the calls of the source. The calls were made as follows: active = growth percent below 10; inactive = the rest.
Write down the outcome that applies. Available outcomes: active, inactive

As a guide, the following entries are already answered.
[[record]]
compound = "C#Cc1nc(C(=O)NCCC(=O)Nc2ccc(NC(=O)c3ccc(/C=C/C(=O)c4nccn4C)cc3)cc2)cs1"
class_assignment = "inactive"

[[record]]
compound = "COc1ccc(/C=C(/C)c2ccc3ccc(OC)cc3[o+]2)c(O)c1"
class_assignment = "inactive"


Lab log entry: CCNC(=O)N1CCc2cc(OC)c(OCCc3ccc(OC)cc3)cc2C1c1ccc(Cl)cc1C (centres undefined) — outcome as called in the assay?
inactive

Lab log entry: COc1cc2c(cc1OC)C(Sc1ccc(F)cc1)c1c(nc(N)c(C#N)c1N)O2 (centres undefined) — outcome as called in the assay?
active

###

# Tested on: SK-MEL-5 melanoma
# assay-remarks: NCI-60 one-dose screen, 48 h
# applied-conditions: 10 µM unless noted
The panel holds about 83,000 compounds, 20% with a hit somewhere; the sample as a whole holds those more often. Activity calls are given as the source filed them. Rule for the calls: active = growth percent below 10; inactive = the rest.
Write down the outcome that applies. Available outcomes: active, inactive

As a guide, the following entries are already answered.
[[record]]
molecule = "COc1ccc(-c2nc3cccc(O)c3c(=O)n2Cc2ccccc2)cc1COc1ccc(NC(C)=O)cc1"
class_assignment = "inactive"

[[record]]
molecule = "CCc1cccc2c3c(sc12)C(c1ccc(OC)cc1)C(C#N)=C(/N=C/c1ccc(Cl)cc1)O3 (configuration not stated)"
class_assignment = "active"

[[record]]
molecule = "C#CCNC1CCC(c2csc(C#C)n2)=C1C (configuration not stated)"
class_assignment = "inactive"

[[record]]
molecule = "O=C(CN1CCN(c2cc(=O)n(-c3ccccc3)c3ccccc23)CC1)Nc1cccc(C(F)(F)F)c1"
class_assignment = "inactive"


Lab log entry: O=C(NNc1nc2cc(F)ccc2n2c(CN3CCC(O)C3)ccc12)c1cnccn1 (configuration not stated) — outcome as called in the assay?
active

Lab log entry: O=C(CN1CCN(c2cc(=O)n(-c3ccccc3)c3ccccc23)CC1)Nc1ccc(F)cc1 — outcome as called in the assay?
inactive

Lab log entry: COc1ccc(Cn2cc3c(c2-c2cc(OC)c(OC)c(OC)c2)CCc2c(CN4CCCC4)noc2-3)cc1 — outcome as called in the assay?
inactive

###

Consider the following molecules and their measured growth readings.
# Test system: UO-31 renal
# assay-remarks: NCI-60 one-dose screen, 48 h (100 = growth as untreated, 0 = no growth, -100 = all killed)
# applied-conditions: 10 µM unless noted
The panel holds about 83,000 compounds, 20% with a hit somewhere; the sample as a whole holds those more often.
Provide only the numeric value, understood in %.

Please review the following examples before continuing.
[[record]]
input_smiles = "O=C1C(c2ccccc2)=C(N2CCc3ccccc32)OC1(Cl)Cl"
measure = "growth"
val = -23.6

[[record]]
input_smiles = "COc1ccc([C@H]2c3[nH]c4ccccc4c3C[C@H]3C(=O)N(C4CCN(Cc5c(Cl)cccc5Cl)CC4)CC(=O)N23)c(OC)c1"
measure = "growth"
val = 53.7


Here's the next entry for you.
Input O=S(=O)(NCCCNc1nccc(-c2[nH]c(-c3ccccc3)nc2-c2ccc(Cl)c(O)c2)n1)c1ccc(Br)cc1 , output reported growth.
36.8

###

# System: NCI/ADR-RES ovarian
# assay-remarks: NCI-60 one-dose screen, 48 h
# applied-conditions: 10 µM unless noted
About 83,000 compounds went through this panel and 20% of them were active in at least one assay; those are over-represented in the sample as a whole. The source made the active and inactive calls. How the source made its calls: active means growth percent below 10; inactive means the rest.
Write down the outcome that applies. Available outcomes: t (active), f (inactive)

As a guide, the following entries are already answered.
[[record]]
compound = "CN(C)C(=O)c1cc(-c2ccc3ncnc(NCc4ccccc4)c3c2)cnc1N"
class_assignment = "f"

[[record]]
compound = "COc1ccc([C@H]2[C@H](O)C(=O)N2c2cc(OC)c(OC)c(OC)c2)cc1F"
class_assignment = "t"

[[record]]
compound = "COc1ccc(-c2nc(C(Cl)Cl)nc3cc(-c4ccccc4)nn23)cc1"
class_assignment = "t"

[[record]]
compound = "O=C1[C@@H]2Cc3c([nH]c4ccccc34)[C@H](c3c(Cl)cccc3Cl)N2C(=O)CN1C1CCN(CC2CCCCC2)CC1"
class_assignment = "f"

[[record]]
compound = "COc1ccc(Oc2ccc(/C=N/NC(=O)CSc3nc4ccccc4c(=O)n3-c3ccc(Cl)cc3)cc2)cc1"
class_assignment = "f"


Switching to the query record.
Lab log entry: COc1ccc(C(=O)Nc2ncc(Cc3ccccc3Cl)s2)cc1 — outcome as called in the assay?
t

###

# System: COLO 205 colon
# assay-remarks: NCI-60 one-dose screen, 48 h (100 = growth as untreated, 0 = no growth, -100 = all killed)
# applied-conditions: 10 µM unless noted
The panel holds about 83,000 compounds, 20% with a hit somewhere; the sample as a whole holds those more often.
Consider the following molecules and their measured growth readings.
Provide only the numeric value, understood in %.

Input C#CCn1cccc1CNc1ccc(OC)cc1 , output reported growth.
-60.7

Input COc1ccc(-c2nc3cc(Cl)c(Cl)cc3n2CC(=O)N=Nc2c(O)[nH]c3ccc(OC)cc23)cc1 , output reported growth.
31.9

###

# Test system: RPMI-8226 leukemia
# assay-remarks: NCI-60 one-dose screen, 48 h
# applied-conditions: 10 µM unless noted
Compounds without any hit were thinned out: in the full panel of roughly 83,000, 20% have a hit. Calls of active or inactive are those of the source. Rule for the calls: active = growth percent below 10; inactive = the rest.
Write down the outcome that applies. Available outcomes: active, inactive

As a guide, the following entries are already answered.
[[record]]
molecule = "COc1ccccc1-n1cc(C#N)c(N)c1C(=O)c1ccc(Cl)cc1"
class_assignment = "inactive"

[[record]]
molecule = "NC(N)=Nc1ccc(Oc2cccc(Nc3ccc(Cl)c(C(F)(F)F)c3)c2)cc1"
class_assignment = "inactive"

[[record]]
molecule = "O=C1[C@H]2Cc3c([nH]c4ccccc34)[C@@H](c3ccc(Cl)cc3)N2C(=O)CN1C1CCN(Cc2ccccc2)CC1"
class_assignment = "inactive"

[[record]]
molecule = "Nc1nc(-c2cccc([N+](=O)[O-])c2)c(N=Nc2cccc([N+](=O)[O-])c2)s1"
class_assignment = "inactive"

[[record]]
molecule = "CC[C@H](CO)Nc1ccc2ncc(C#Cc3cncc(C(=O)Nc4ccc(CN5CCN(C)CC5)c(C(F)(F)F)c4)c3)n2n1"
class_assignment = "active"


Switching to the query record.
Lab log entry: COc1cc2c(cc1OC)C(Sc1ccc(C)cc1)c1c(nc(N)c(C#N)c1N)O2 (stereo unspecified) — outcome as called in the assay?
active

###

# System: NCI-H460 lung
# assay-remarks: NCI-60 one-dose screen, 48 h
# applied-conditions: 10 µM unless noted
About 83,000 compounds went through this panel and 20% of them were active in at least one assay; those are over-represented in the sample as a whole. Calls of active or inactive are those of the source. Rule for the calls: active = growth percent below 10; inactive = the rest.
Write down the outcome that applies. Available outcomes: class 1 = active, class 0 = inactive

[[record]]
compound = "CCCn1cnc2c(c1=N)C(c1ccc(F)cc1)c1sc3c(CC)cccc3c1O2 (stereo not given)"
experimental_target = "NCI-H460 lung"
class_assignment = "class 1"


Lab log entry: Cc1ccc(C(=O)NN2C(=O)/C(=C/C=C/c3ccco3)SC2=S)cc1 — outcome as called in the assay?
class 0

Lab log entry: O=S(=O)(NCCNc1nccc(-n2cnc3ccccc32)n1)c1ccc(Br)cc1 — outcome as called in the assay?
class 0

Lab log entry: Cc1cc(C(NC(=O)CCCCCNc2cccc3c2C(=O)N(C2CCC(=O)NC2=O)C3=O)c2ccc3c(c2)OC(F)(F)O3)c(O)c2ncccc12 (stereo not given) — outcome as called in the assay?
class 0

Lab log entry: O=C(NNc1nc2cc(F)c(F)cc2n2c(CN3CC4CNCC4C3)ccc12)c1cnccn1 (stereo not given) — outcome as called in the assay?
class 1

Lab log entry: COc1cccc2cc(-c3cc4ccccc4[nH]3)/c(=N\NC(=O)c3ccc(Cl)cc3)oc12 — outcome as called in the assay?
class 0

Lab log entry: N/C(=N\C(N)=N\c1nc2ccccc2s1)c1ccncc1Cl — outcome as called in the assay?
class 0

Lab log entry: N#Cc1cccc(/C(N)=N/C(N)=N/c2nc3ccccc3s2)c1 — outcome as called in the assay?
class 0

Lab log entry: COc1ccc(-n2c(SCc3nnc(NC(=O)c4ccc(Br)cc4)s3)nc3cc(OC)c(OC)cc3c2=O)cc1 — outcome as called in the assay?
class 0

Lab log entry: CN1CCN(Cc2ccc(NC(=O)c3cncc(C#Cc4cnc5ccc(N6CCN(C)CC6)nn45)c3)cc2C(F)(F)F)CC1 — outcome as called in the assay?
class 1

Lab log entry: O=C(CCn1c[n+](CC(=O)c2ccc(F)cc2)c2ccccc21)Nc1cccc2cccnc12 — outcome as called in the assay?
class 0

Lab log entry: CCN(CC)c1ccc2c(c1)Oc1nc(N)c(C#N)c(N)c1C2Sc1ccc(F)cc1 (stereo not given) — outcome as called in the assay?
class 1

Lab log entry: O=C(CN1CCN(c2cc(=O)n(-c3ccccc3)c3ccccc23)CC1)Nc1nc(-c2ccccc2)cs1 — outcome as called in the assay?
class 0

Lab log entry: COc1cc(-c2nc(SCCC(C)C)nc(NNC(=O)c3ccncc3)c2C#N)cc(OC)c1OC — outcome as called in the assay?
class 0

Lab log entry: Cn1ccnc1C(=O)/C=C/c1ccc(NC(=O)c2c(F)c(F)c(F)c(F)c2F)cc1 — outcome as called in the assay?
class 0
